System: HeLa Kyoto
Assay: solubility change mitosis vs G1/S (difference of NP-40 vs SDS log2 ratios) (log2 ratio difference); higher = more soluble in mitosis
Answer each item with its documented solubility change mitosis (log2).

{"columns": ["seq", "test.value"],
 "data": [
  ["MSSNECFKCGRSGHWARECPTGGGRGRGMRSRGRGGFTSDRGFQFVSSSLPDICYRCGESGHLAKDCDLQEDACYNCGRGGHIAKDCKEPKREREQCCYNCGKPGHLARDCDHADEQKCYSCGEFGHIQKDCTKVKCYRCGETGHVAINCSKTSEVNCYRCGESGHLARECTIEATA [CNBP]", -0.0883],
  ["MAGKQAVSASGKWLDGIRKWYYNAAGFNKLGLMRDDTIYEDEDVKEAIRRLPENLYNDRMFRIKRALDLNLKHQILPKEQWTKYEEENFYLEPYLKEVIRERKEREEWAKK [UQCRB]", 0.253]
]}

For every item below, please supply its solubility change mitosis (log2).
1. MREYKVVVLGSGGVGKSALTVQFVTGTFIEKYDPTIEDFYRKEIEVDSSPSVLEILDTAGTEQFASMRDLYIKNGQGFILVYSLVNQQSFQDIKPMRDQIVRVKRYEKVPLILVGNKVDLEPEREVMSSEGRALAQEWGCPFMETSAKSKSMVDELFAEIVRQMNYSSLPEKQDQCCTTCVVQ [RAP2C]
2. MASDEGKLFVGGLSFDTNEQSLEQVFSKYGQISEVVVVKDRETQRSRGFGFVTFENIDDAKDAMMAMNGKSVDGRQIRVDQAGKSSDNRSRGYRGGSAGGRGFFRGGRGRGRGFSRGGGDRGYGGNRFESRSGGYGGSRDYYSSRSQSGGYSDRSSGGSYRDSYDSYATHNE [CIRBP]

1: -0.0697; 2: 0.112

* * *

System: HeLa Kyoto
Experiment: melting temperature (median over replicates), in situ; higher = more thermally stable
Conditions: cell cycle stage: mitosis
parameter: melting temperature (°C)
Give bare numbers, in °C.

For every item below, please supply its melting temperature.
1. MADSELQLVEQRIRSFPDFPTPGVVFRDISPVLKDPASFRAAIGLLARHLKATHGGRIDYIAGLDSRGFLFGPSLAQELGLGCVLIRKRGKLPGPTLWASYSLEYGKAELEIQKDALEPGQRVVVVDDLLATGGTMNAACELLGRLQAEVLECVSLVELTSLKGREKLAPVPFFSLLQYE [APRT]
2. MRKVVLITGASSGIGLALCKRLLAEDDELHLCLACRNMSKAEAVCAALLASHPTAEVTIVQVDVSNLQSVFRASKELKQRFQRLDCIYLNAGIMPNPQLNIKALFFGLFSRKVIHMFSTAEGLLTQGDKITADGLQEVFETNVFGHFILIRELEPLLCHSDNPSQLIWTSSRSARKSNFSLEDFQHSKGKEPYSSSKYATDLLSVALNRNFNQQGLYSNVACPGTALTNLTYGILPPFIWTLLMPAILLLRFFANAFTLTPYNGTEALVWLFHQKPESLNPLIKYLSATTGFGRNYIMTQKMDLDEDTAEKFYQKLLELEKHIRVTIQKTDNQARLSGSCL [HSD17B7]
3. MRQKHYLEAAARGLHDSCPGQARYLLWAYTSSHDDKSTFEETCPYCFQLLVLDNSRVRLKPKARLTPKIQKLLNREARNYTLSFKEAKMVKKFKDSKSVLLITCKTCNRTVKHHGKSRSFVSTLKSNPATPTSKLSLKTPERRTANPNHDMSGSKGKSPASVFRTPTSGQSVSTCSSKNTSKTKKHFSQLKMLLSQNESQKIPKVDFRNFLSSLKGGLLK [C18ORF21]
4. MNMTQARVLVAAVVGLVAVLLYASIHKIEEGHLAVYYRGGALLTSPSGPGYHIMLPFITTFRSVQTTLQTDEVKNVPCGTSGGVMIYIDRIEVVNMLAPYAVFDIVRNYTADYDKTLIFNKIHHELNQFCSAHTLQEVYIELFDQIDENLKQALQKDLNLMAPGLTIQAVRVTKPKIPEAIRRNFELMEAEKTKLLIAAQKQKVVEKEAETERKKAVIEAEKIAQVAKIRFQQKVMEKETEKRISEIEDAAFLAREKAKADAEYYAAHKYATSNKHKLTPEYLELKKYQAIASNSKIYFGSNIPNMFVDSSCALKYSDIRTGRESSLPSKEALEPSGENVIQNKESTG [ERLIN1]
5. MEPRAVGVSKQDIREQIWGYMESQNLADFPRPVHHRIPNFKGSYLACQNIKDLDVFARTQEVKVDPDKPLEGVRLLVLQSKKTLLVPTPRLRTGLFNKITPPPGATKDILRKCATSQGVRNYSVPIGLDSRVLVDLVVVGSVAVSEKGWRIGKGEGYADLEYAMMVSMGAVSKETPVVTIVHDCQVVDIPEELVEEHDITVDYILTPTRVIATGCKRPKPMGITWFKISLEMMEKIPILRSLRAREQQAGKDVTLQGEHQHLPEPGCQQTVPLSVGRRPPDTPGPETNSMEAAPGSPPGEGAPLAADVYVGNLPGDARVSDLKRALRELGSVPLRLTWQGPRRRAFLHYPDSAAAQQAVSCLQGLRLGTDTLRVALARQQRDK [MTHFSD]

55.8
51
46.8
53.1
53.5

* * *

System: HeLa Kyoto
Test: solubility change mitosis vs G1/S (difference of NP-40 vs SDS log2 ratios) (log2 ratio difference); higher = more soluble in mitosis
parameter: solubility change mitosis (log2)
Answers are plain numbers.

Solved cases below.
{"columns": ["seq", "solubility change mitosis (log2)"],
 "data": [
  ["MARHVFLTGPPGVGKTTLIHKASEVLKSSGVPVDGFYTEEVRQGGRRIGFDVVTLSGTRGPLSRVGLEPPPGKRECRVGQYVVDLTSFEQLALPVLRNADCSSGPGQRVCVIDEIGKMELFSQLFIQAVRQTLSTPGTIILGTIPVPKGKPLALVEEIRNRKDVKVFNVTKENRNHLLPDIVTCVQSSRK [NTPCR]", 0.0287],
  ["MSVAGGEIRGDTGGEDTAAPGRFSFSPEPTLEDIRRLHAEFAAERDWEQFHQPRNLLLALVGEVGELAELFQWKTDGEPGPQGWSPRERAALQEELSDVLIYLVALAARCRVDLPLAVLSKMDINRRRYPAHLARSSSRKYTELPHGAISEDQAVGPADIPCDSTGQTST [DCTPP1]", 0.646],
  ["MALDPADQHLRHVEKDVLIPKIMREKAKERCSEQVQDFTKCCKNSGVLMVVKCRKENSALKECLTAYYNDPAFYEECKMEYLKEREEFRKTGIPTKKRLQKLPTSM [CMC1]", 0.26],
  ["MEPTAPSLTEEDLTEVKKDALENLRVYLCEKIIAERHFDHLRAKKILSREDTEEISCRTSSRKRAGKLLDYLQENPKGLDTLVESIRREKTQNFLIQKITDEVLKLRNIKLEHLKGLKCSSCEPFPDGATNNLSRSNSDESNFSEKLRASTVMYHPEGESSTTPFFSTNSSLNLPVLEVGRTENTIFSSTTLPRPGDPGAPPLPPDLQLEEEGTCANSSEMFLPLRSRTVSRQ [BCL10]", 0.181],
  ["MPAPAATYERVVYKNPSEYHYMKVCLEFQDCGVGLNAAQFKQLLISAVKDLFGEVDAALPLDILTYEEKTLSAILRICSSGLVKLWSSLTLLGSYKGKKCAFRVIQVSPFLLALSGNSRELVLD [RPP14]", 0.0872],
  ["MSGSLGRAAAALLRWGRGAGGGGLWGPGVRAAGSGAGGGGSAEQLDALVKKDKVVVFLKGTPEQPQCGFSNAVVQILRLHGVRDYAAYNVLDDPELRQGIKDYSNWPTIPQVYLNGEFVGGCDILLQMHQNGDLVEELKKLGIHSALLDEKKDQDSK [GLRX5]", -0.0285]
]}

Turning now to a further sequence:
Look up and report measured solubility change mitosis (log2) for this entry: MADDQGCIEEQGVEDSANEDSVDAKPDRSSFVPSLFSKKKKNVTMRSIKTTRDRVPTYQYNMNFEKLGKCIIINNKNFDKVTGMGVRNGTDKDAEALFKCFRSLGFDVIVYNDCSCAKMQDLLKKASEEDHTNAACFACILLSHGEENVIYGKDGVTPIKDLTAHFRGDRCKTLLEKPKLFFIQACRGTELDDGIQADSGPINDTDANPRYKIPVEADFLFAYSTVPGYYSWRSPGRGSWFVQALCSILEEHGKDLEIMQILTRVNDRVARHFESQSDDPHFHEKKQIPCVVSMLTKELYFSQ [CASP7]
0.00474

* * *

System: HeLa Kyoto
Test: solubility in G1/S (NP-40 vs SDS abundance) (log2 ratio); higher = more soluble
Conditions: cell cycle stage: G1/S
parameter: solubility in G1/S (log2)

Solved cases below.
{"columns": ["seq", "tested.on", "solubility in G1/S (log2)"],
 "data": [
  ["MKHINLSFAACGFLGIYHLGAASALCRHGKKLVKDVKAFAGASAGSLVASVLLTAPEKIEECNQFTYKFAEEIRRQSFGAVTPGYDFMARLRSGMESILPPSAHELAQNRLHVSITNAKTRENHLVSTFSSREDLIKVLLASSFVPIYAGLKLVEYKGQKWVDGGLTNALPILPVGRTVTISPFSGRLDISPQDKGQLDLYVNIAKQDIMLSLANLVRLNQALFPPSKRKMESLYQCGFDDTVKFLLKENWFE [PNPLA4]", "HeLa Kyoto", 0.107],
  ["MDQEPVGGVERGEAVAASGAAAAAAFGESAGQMSNERGFENVELGVIGKKKKVPRRVIHFVSGETMEEYSTDEDEVDGLEKKDVLPTVDPTKLTWGPYLWFYMLRAATSTLSVCDFLGEKIASVLGISTPKYQYAIDEYYRMKKEEEEEEEENRMSEEAEKQYQQNKLQTDSIVQTDQPETVISSSFVNVNFEMEGDSEVIMESKQNPVSVPP [FAM177A1]", "HeLa Kyoto", 0.0523]
]}

For every item below, please supply its solubility in G1/S (log2).
1. MAASCVLLHTGQKMPLIGLGTWKSEPGQVKAAVKYALSVGYRHIDCAAIYGNEPEIGEALKEDVGPGKAVPREELFVTSKLWNTKHHPEDVEPALRKTLADLQLEYLDLYLMHWPYAFERGDNPFPKNADGTICYDSTHYKETWKALEALVAKGLVQALGLSNFNSRQIDDILSVASVRPAVLQVECHPYLAQNELIAHCQARGLEVTAYSPLGSSDRAWRDPDEPVLLEEPVVLALAEKYGRSPAQILLRWQVQRKVICIPKSITPSRILQNIKVFDFTFSPEEMKQLNALNKNWRYIVPMLTVDGKRVPRDAGHPLYPFNDPY [AKR1A1]
2. MLRSVWNFLKRHKKKCIFLGTVLGGVYILGKYGQKKIREIQEREAAEYIAQARRQYHFESNQRTCNMTVLSMLPTLREALMQQLNSESLTALLKNRPSNKLEIWEDLKIISFTRSTVAVYSTCMLVVLLRVQLNIIGGYIYLDNAAVGKNGTTILAPPDVQQQYLSSIQHLLGDGLTELITVIKQAVQKVLGSVSLKHSLSLLDLEQKLKEIRNLVEQHKSSSWINKDGSKPLLCHYMMPDEETPLAVQACGLSPRDITTIKLLNETRDMLESPDFSTVLNTCLNRGFSRLLDNMAEFFRPTEQDLQHGNSMNSLSSVSLPLAKIIPIVNGQIHSVCSETPSHFVQDLLTMEQVKDFAANVYEAFSTPQQLEK [PEX3]
3. MTLESMMACCLSDEVKESKRINAEIEKQLRRDKRDARRELKLLLLGTGESGKSTFIKQMRIIHGAGYSEEDKRGFTKLVYQNIFTAMQAMIRAMETLKILYKYEQNKANALLIREVDVEKVTTFEHQYVSAIKTLWEDPGIQECYDRRREYQLSDSAKYYLTDVDRIATLGYLPTQQDVLRVRVPTTGIIEYPFDLENIIFRMVDVGGQRSERRKWIHCFENVTSIMFLVALSEYDQVLVESDNENRMEESKALFRTIITYPWFQNSSVILFLNKKDLLEDKILYSHLVDYFPEFDGPQRDAQAAREFILKMFVDLNPDSDKIIYSHFTCATDTENIRFVFAAVKDTILQLNLKEYNLV [GNA11]
4. MAAETRNVAGAEAPPPQKRYYRQRAHSNPMADHTLRYPVKPEEMDWSELYPEFFAPLTQNQSHDDPKDKKEKRAQAQVEFADIGCGYGGLLVELSPLFPDTLILGLEIRVKVSDYVQDRIRALRAAPAGGFQNIACLRSNAMKHLPNFFYKGQLTKMFFLFPDPHFKRTKHKWRIISPTLLAEYAYVLRVGGLVYTITDVLELHDWMCTHFEEHPLFERVPLEDLSEDPVVGHLGTSTEEGKKVLRNGGKNFPAIFRRIQDPVLQAVTSQTSLPGH [METTL1]
5. MSSDFEGYEQDFAVLTAEITSKIARVPRLPPDEKKQMVANVEKQLEEAKELLEQMDLEVREIPPQSRGMYSNRMRSYKQEMGKLETDFKRSRIAYSDEVRNELLGDDGNSSENQRAHLLDNTERLERSSRRLEAGYQIAVETEQIGQEMLENLSHDREKIQRARERLRETDANLGKSSRILTGMLRRIIQNRILLVILGIIVVITILMAITFSVRRH [VTI1A]
6. MDAAEVEFLAEKELVTIIPNFSLDKIYLIGGDLGPFNPGLPVEVPLWLAINLKQRQKCRLLPPEWMDVEKLEKMRDHERKEETFTPMPSPYYMELTKLLLNHASDNIPKADEIRTLVKDMWDTRIAKLRVSADSFVRQQEAHAKLDNLTLMEINTSGTFLTQALNHMYKLRTNLQPLESTQSQDF [GINS2]
7. MAVTALAARTWLGVWGVRTMQARGFGSDQSENVDRGAGSIREAGGAFGKREQAEEERYFRAQSREQLAALKKHHEEEIVHHKKEIERLQKEIERHKQKIKMLKHDD [ATPIF1]

0.534
0.0923
-0.276
0.231
0.0215
0.24
0.903

For every item below, please supply its solubility in G1/S (log2).
1. MIEVVCNDRLGKKVRVKCNTDDTIGDLKKLIAAQTGTRWNKIVLKKWYTIFKDHVSLGDYEIHDGMNLELYYQ [UBL5]
2. MSGDSSGRGPEGRGRGRDPHRDRTRSRSRSRSPLSPRSRRGSARERREAPERPSLEDTEPSDSGDEMMDPASLEAEADQGLCRQIRHQYRALINSVQQNREDILNAGDKLTEVLEEANTLFNEVSRAREAVLDAHFLVLASDLGKEKAKQLRSDLSSFDMLRYVETLLTHMGVNPLEAEELIRDEDSPDFEFIVYDSWKITGRTAENTFNKTHTFHFLLGSIYGECPVPKPRVDRPRKVPVIQEERAMPAQLRRMEESHQEATEKEVERILGLLQTYFREDPDTPMSFFDFVVDPHSFPRTVENIFHVSFIIRDGFARIRLDQDRLPVIEPVSINEENEGFEHNTQVRNQGIIALSYRDWEEIVKTFEISEPVITPSQRQQKPSA [NSMCE4A]

-1.06
0.182

Entry source: the supplement of paper PMC5998384
